- System: HXB2 site-directed mutant T69S-AG
- Format: cell-based
- run conditions: virus T69S-AG
attribute measured: Fold resistance in IC50 relative to HXB2 (fold)
Reply with just the number (in fold).

Which Fold resistance in IC50 relative to HXB2 value is on record for O=c1[nH]cnc2c1ncn2[C@H]1CC[C@@H](CO)O1 ?
3.8

Another molecule to check: Nc1nc(NC2CC2)c2ncn([C@H]3C=C[C@@H](CO)C3)c2n1
7.0

Another molecule to check: Nc1ccn([C@@H]2CS[C@H](CO)O2)c(=O)n1
4.2

Another molecule to check: Nc1ccn([C@H]2CC[C@@H](CO)O2)c(=O)n1
2.8
